Data origin: patent US8957017B2

# experiment.description: Stability in buffer at various pH values
# Format: physicochemical
# stated.conditions: pH 6, 37° C., 4 h
Counter-ions that a name gives are not always drawn.
Please provide measured % test substance after 4 h [F(t = 4 h) × 100/F(t = 0 h)] for the entries that follow.
Answers are plain numbers, in %.

compound	measure.unit	endpoint.result
CC(C)[C@H](NC(=O)[C@@H](N)CCCCN)C(=O)OCCOc1ccc(-c2c(C#N)c(N)nc(SCc3csc(-c4ccc(Cl)cc4)n3)c2C#N)cc1 [Example 1, dihydrochloride]	%	100
N#Cc1c(N)nc(SCc2csc(-c3ccc(Cl)cc3)n2)c(C#N)c1-c1ccc(OCCOC(=O)CC[C@H](N)C(=O)NCCN)cc1 [Example 6, dihydrochloride]	%	78
N#Cc1c(N)nc(SCc2csc(-c3ccc(Cl)cc3)n2)c(C#N)c1-c1ccc(OCCOC(=O)[C@H](CO)NC(=O)[C@@H](N)CCCCN)cc1 [Example 5, dihydrochloride]	%	95

Query: Given C[C@H](NC(=O)[C@@H](N)CCCCN)C(=O)OCCOc1ccc(-c2c(C#N)c(N)nc(SCc3csc(-c4ccc(Cl)cc4)n3)c2C#N)cc1 [Example 4, dihydrochloride] , state its recorded % test substance after 4 h [F(t = 4 h) × 100/F(t = 0 h)].
Result: 97
